Reference source: patent US20220371989A1

Tested on: Enterococcus faecalis 16371
Assay: microbroth dilution antimicrobial assay, E. faecalis 16371
Assay type: cell-based
Conditions: Enterococcus faecalis 16371; microbroth dilution, 22 h, 37° C., triplicate; read-out: IC50 of N-Acyltyrosines
reported-endpoint: IC50 (µM)

(P) CCCCCCCCCCCCCCCC(=O)N[C@@H](Cc1ccc(O)cc1)C(=O)O [Compound 4, N-Palmitoyl-L-tyrosine]
(Q) CCCCCCCCCCCCCCCC(=O)N[C@@](C)(Cc1ccc(OC)cc1)C(=O)O [Compound 1, N-Palmitoyl-α,O-dimethyl-L-tyrosine]
Could you determine which record has the numerically smaller IC50? Candidates: P and Q Provide the label of your selected option as the answer.
Q

* * *

Test system: Enterococcus faecium 15337
Assay: microbroth dilution antimicrobial assay, E. faecium 15337
Assay type: cell-based
Details: Enterococcus faecium 15337; microbroth dilution, 22 h, 37° C., triplicate; read-out: IC50 of N-Acyltyrosines
reported-endpoint: IC50 (µM)

State its IC50 on Enterococcus faecium 15337: `CCCCCCCCCCCCCCCC(=O)N[C@@](C)(Cc1ccc(O)cc1)C(=O)O`
9.9

(A) CCCCCCCCCCCCCCCC(=O)N[C@@](C)(Cc1ccc(OC)cc1)C(=O)O
(B) CCCCCCCCCCCCCCCC(=O)N[C@@H](Cc1ccc(OC)cc1)C(=O)O
Hi there! Just curious which has the higher IC50 between A and B . Identify your selection by its label.
B
(B: 10.5 µM, A: 7.2 µM)

* * *

IC50 reference
Tested on: Staphylococcus warneri ATCC 17917
Experiment: microbroth dilution antimicrobial assay, S. warneri ATCC 17917
Assay type: cell-based
Settings: ATCC17917; Staphylococcus warneri ATCC 17917; microbroth dilution, 22 h, 37° C., triplicate; read-out: IC50 of N-Acyltyrosines
Description: α-Methylation of N-pamitoyltyrosines confers antimicrobial activity. […] Evaluation of antimicrobial activity and cytotoxicity. […] Antimicrobial activity of 1-4 was evaluated against all five clinical Enterococcus isolates in addition to methicillin-resistant Staphylococcus aureus ATCC 33591 (MRSA), S. warneri ATCC 17917, vancomycin-resistant Enterococcus faecium EF379 (VRE), Pseudomonas aeruginosa ATCC 14210, Proteus vulgaris ATCC 12454 and Candida albicans ATCC 14035. […]

Worked cases, IC50 given:
// returns reported IC50 for input `CCCCCCCCCCCCCCCC(=O)N[C@@](C)(Cc1ccc(O)cc1)C(=O)O`
9.2 to 18.4 µM

For `CCCCCCCCCCCCCCCC(=O)N[C@@H](Cc1ccc(O)cc1)C(=O)O` , what is its reported IC50?
> 305 µM

// lookup IC50 for `CCCCCCCCCCCCCCCC(=O)N[C@@H](Cc1ccc(OC)cc1)C(=O)O`
> 295 µM

As a next step, examine the molecule that follows.
Record request: IC50 value, item `CCCCCCCCCCCCCCCC(=O)N[C@@](C)(Cc1ccc(OC)cc1)C(=O)O`
> 286 µM
